Peptide Concentration-induced 50 % ANTS/DPX leakage at pH 4.8 (L/P), 3POPC/1POPG Vesicle: recorded values
protocol_summary: ANTS/DPX liposome leakage assay
condition_description: 0.5 mM vesicles, peptide 0-20 µM, 3 h incubation, HCl-adjusted PBS 1X pH 4.8; lipid per peptide
Peptide text beside a SMILES is read from it.
Field format: number, assumed L/P, no unit text.

[
  {
    "compound": "CC(C)C[C@H](NC(=O)CN)C(=O)N[C@@H](CC(C)C)C(=O)N[C@@H](CCC(=O)O)C(=O)N[C@@H](CC(C)C)C(=O)N[C@@H](CC(C)C)C(=O)N[C@@H](Cc1c[nH]cn1)C(=O)N[C@@H](CC(C)C)C(=O)N[C@@H](CC(C)C)C(=O)N[C@@H](CC(C)C)C(=O)N[C@@H](Cc1c[nH]cn1)C(=O)N[C@@H](C)C(=O)N[C@@H](C)C(=O)NCC(=O)N[C@@H](Cc1c[nH]c2ccccc12)C(N)=O [EHH] (H-GLLELLHLLLHAAGW-NH2)",
    "display_unit": "L/P",
    "value_measured": 80
  },
  {
    "compound": "CC(C)C[C@H](NC(=O)CN)C(=O)N[C@@H](CC(C)C)C(=O)N[C@@H](CCC(=O)O)C(=O)N[C@@H](CC(C)C)C(=O)N[C@@H](CC(C)C)C(=O)N[C@@H](CCCCN)C(=O)N[C@@H](CC(C)C)C(=O)N[C@@H](CC(C)C)C(=O)N[C@@H](CC(C)C)C(=O)N[C@@H](CCC(=O)O)C(=O)N[C@@H](C)C(=O)N[C@@H](C)C(=O)NCC(=O)N[C@@H](Cc1c[nH]c2ccccc12)C(N)=O [EKE] (H-GLLELLKLLLEAAGW-NH2)",
    "display_unit": "L/P",
    "value_measured": 438
  },
  {
    "compound": "CC(C)C[C@H](NC(=O)CN)C(=O)N[C@@H](CC(C)C)C(=O)N[C@@H](CC(=O)O)C(=O)N[C@@H](CC(C)C)C(=O)N[C@@H](CC(C)C)C(=O)N[C@@H](Cc1c[nH]cn1)C(=O)N[C@@H](CC(C)C)C(=O)N[C@@H](CC(C)C)C(=O)N[C@@H](CC(C)C)C(=O)N[C@@H](CCCCN)C(=O)N[C@@H](C)C(=O)N[C@@H](C)C(=O)NCC(=O)N[C@@H](Cc1c[nH]c2ccccc12)C(N)=O [DHK] (H-GLLDLLHLLLKAAGW-NH2)",
    "display_unit": "L/P",
    "value_measured": 183
  },
  {
    "compound": "CC(C)C[C@H](NC(=O)CN)C(=O)N[C@@H](CC(C)C)C(=O)N[C@@H](CC(=O)O)C(=O)N[C@@H](CC(C)C)C(=O)N[C@@H](CC(C)C)C(=O)N[C@@H](CCCCN)C(=O)N[C@@H](CC(C)C)C(=O)N[C@@H](CC(C)C)C(=O)N[C@@H](CC(C)C)C(=O)N[C@@H](CCC(=O)O)C(=O)N[C@@H](C)C(=O)N[C@@H](C)C(=O)NCC(=O)N[C@@H](Cc1c[nH]c2ccccc12)C(N)=O [DKE] (H-GLLDLLKLLLEAAGW-NH2)",
    "display_unit": "L/P",
    "value_measured": 469
  },
  {
    "compound": "CC(C)C[C@H](NC(=O)CN)C(=O)N[C@@H](CC(C)C)C(=O)N[C@@H](CCCCN)C(=O)N[C@@H](CC(C)C)C(=O)N[C@@H](CC(C)C)C(=O)N[C@@H](Cc1c[nH]cn1)C(=O)N[C@@H](CC(C)C)C(=O)N[C@@H](CC(C)C)C(=O)N[C@@H](CC(C)C)C(=O)N[C@@H](Cc1c[nH]cn1)C(=O)N[C@@H](C)C(=O)N[C@@H](C)C(=O)NCC(=O)N[C@@H](Cc1c[nH]c2ccccc12)C(N)=O [KHH] (H-GLLKLLHLLLHAAGW-NH2)",
    "display_unit": "L/P",
    "value_measured": 48
  }
]

Input line: What value of measured Peptide Concentration-induced 50 % ANTS/DPX leakage at pH 4.8 (L/P), 3POPC/1POPG Vesicle is listed for CC(C)C[C@H](NC(=O)CN)C(=O)N[C@@H](CC(C)C)C(=O)N[C@@H](CC(=O)O)C(=O)N[C@@H](CC(C)C)C(=O)N[C@@H](CC(C)C)C(=O)N[C@@H](CCC(=O)O)C(=O)N[C@@H](CC(C)C)C(=O)N[C@@H](CC(C)C)C(=O)N[C@@H](CC(C)C)C(=O)N[C@@H](Cc1c[nH]cn1)C(=O)N[C@@H](C)C(=O)N[C@@H](C)C(=O)NCC(=O)N[C@@H](Cc1c[nH]c2ccccc12)C(N)=O [DEH] (H-GLLDLLELLLHAAGW-NH2) ?
Output line: 193

Input line: # Peptide Concentration-induced 50 % ANTS/DPX leakage at pH 4.8 (L/P), 3POPC/1POPG Vesicle lookup, item CC(C)C[C@H](NC(=O)CN)C(=O)N[C@@H](CC(C)C)C(=O)N[C@@H](CC(=O)O)C(=O)N[C@@H](CC(C)C)C(=O)N[C@@H](CC(C)C)C(=O)N[C@@H](CCC(=O)O)C(=O)N[C@@H](CC(C)C)C(=O)N[C@@H](CC(C)C)C(=O)N[C@@H](CC(C)C)C(=O)N[C@@H](CCCCN)C(=O)N[C@@H](C)C(=O)N[C@@H](C)C(=O)NCC(=O)N[C@@H](Cc1c[nH]c2ccccc12)C(N)=O [DEK] (H-GLLDLLELLLKAAGW-NH2)
Output line: 469

Input line: // query Peptide Concentration-induced 50 % ANTS/DPX leakage at pH 4.8 (L/P), 3POPC/1POPG Vesicle value for entry CC(C)C[C@H](NC(=O)CN)C(=O)N[C@@H](CC(C)C)C(=O)N[C@@H](CCC(=O)O)C(=O)N[C@@H](CC(C)C)C(=O)N[C@@H](CC(C)C)C(=O)N[C@@H](CCC(=O)O)C(=O)N[C@@H](CC(C)C)C(=O)N[C@@H](CC(C)C)C(=O)N[C@@H](CC(C)C)C(=O)N[C@@H](CCC(=O)O)C(=O)N[C@@H](C)C(=O)N[C@@H](C)C(=O)NCC(=O)N[C@@H](Cc1c[nH]c2ccccc12)C(N)=O [EEE] (H-GLLELLELLLEAAGW-NH2)
Output line: 28

Input line: Would you kindly share the measured Peptide Concentration-induced 50 % ANTS/DPX leakage at pH 4.8 (L/P), 3POPC/1POPG Vesicle for CC(C)C[C@H](NC(=O)CN)C(=O)N[C@@H](CC(C)C)C(=O)N[C@@H](CCC(=O)O)C(=O)N[C@@H](CC(C)C)C(=O)N[C@@H](CC(C)C)C(=O)N[C@@H](Cc1c[nH]cn1)C(=O)N[C@@H](CC(C)C)C(=O)N[C@@H](CC(C)C)C(=O)N[C@@H](CC(C)C)C(=O)N[C@@H](CCC(=O)O)C(=O)N[C@@H](C)C(=O)N[C@@H](C)C(=O)NCC(=O)N[C@@H](Cc1c[nH]c2ccccc12)C(N)=O [EHE] (H-GLLELLHLLLEAAGW-NH2) ?
Output line: 384

###

protocol_summary: Tryptophan fluorescent binding assay
condition_description: tryptophan fluorescence; 50 µM peptide, lipid titrated 0-5000 µM; phosphate buffered saline 1X, pH 7.4; values as lipid per peptide
Peptide text beside a SMILES is read from it.
quantity: Lipid Concentration-induced 50% Peptide Binding (L/P), POPC Vesicle
Give the quantity in L/P, number only.

Some entries whose results are on file:
[
  {
    "compound": "CC(C)C[C@H](NC(=O)CN)C(=O)N[C@@H](CC(C)C)C(=O)N[C@@H](CC(=O)O)C(=O)N[C@@H](CC(C)C)C(=O)N[C@@H](CC(C)C)C(=O)N[C@@H](CCCCN)C(=O)N[C@@H](CC(C)C)C(=O)N[C@@H](CC(C)C)C(=O)N[C@@H](CC(C)C)C(=O)N[C@@H](CCC(=O)O)C(=O)N[C@@H](C)C(=O)N[C@@H](C)C(=O)NCC(=O)N[C@@H](Cc1c[nH]c2ccccc12)C(N)=O [DKE] (H-GLLDLLKLLLEAAGW-NH2)",
    "value_measured": 0.56
  },
  {
    "compound": "CC(C)C[C@H](NC(=O)CN)C(=O)N[C@@H](CC(C)C)C(=O)N[C@@H](CCC(=O)O)C(=O)N[C@@H](CC(C)C)C(=O)N[C@@H](CC(C)C)C(=O)N[C@@H](CCCCN)C(=O)N[C@@H](CC(C)C)C(=O)N[C@@H](CC(C)C)C(=O)N[C@@H](CC(C)C)C(=O)N[C@@H](CCCCN)C(=O)N[C@@H](C)C(=O)N[C@@H](C)C(=O)NCC(=O)N[C@@H](Cc1c[nH]c2ccccc12)C(N)=O [EKK] (H-GLLELLKLLLKAAGW-NH2)",
    "value_measured": 1.50
  }
]

Input line: Form field: reported Lipid Concentration-induced 50% Peptide Binding (L/P), POPC Vesicle of CC(C)C[C@H](NC(=O)CN)C(=O)N[C@@H](CC(C)C)C(=O)N[C@@H](Cc1c[nH]cn1)C(=O)N[C@@H](CC(C)C)C(=O)N[C@@H](CC(C)C)C(=O)N[C@@H](CCCCN)C(=O)N[C@@H](CC(C)C)C(=O)N[C@@H](CC(C)C)C(=O)N[C@@H](CC(C)C)C(=O)N[C@@H](CCCCN)C(=O)N[C@@H](C)C(=O)N[C@@H](C)C(=O)NCC(=O)N[C@@H](Cc1c[nH]c2ccccc12)C(N)=O [HKK] (H-GLLHLLKLLLKAAGW-NH2)
Output line: 0.18

Input line: Data request, read-out Lipid Concentration-induced 50% Peptide Binding (L/P), POPC Vesicle, for CC(C)C[C@H](NC(=O)CN)C(=O)N[C@@H](CC(C)C)C(=O)N[C@@H](CCCCN)C(=O)N[C@@H](CC(C)C)C(=O)N[C@@H](CC(C)C)C(=O)N[C@@H](CCC(=O)O)C(=O)N[C@@H](CC(C)C)C(=O)N[C@@H](CC(C)C)C(=O)N[C@@H](CC(C)C)C(=O)N[C@@H](CCCCN)C(=O)N[C@@H](C)C(=O)N[C@@H](C)C(=O)NCC(=O)N[C@@H](Cc1c[nH]c2ccccc12)C(N)=O [KEK] (H-GLLKLLELLLKAAGW-NH2)
Output line: 0.47

Input line: Report Lipid Concentration-induced 50% Peptide Binding (L/P), POPC Vesicle for CC(C)C[C@H](NC(=O)CN)C(=O)N[C@@H](CC(C)C)C(=O)N[C@@H](CCC(=O)O)C(=O)N[C@@H](CC(C)C)C(=O)N[C@@H](CC(C)C)C(=O)N[C@@H](CCC(=O)O)C(=O)N[C@@H](CC(C)C)C(=O)N[C@@H](CC(C)C)C(=O)N[C@@H](CC(C)C)C(=O)N[C@@H](Cc1c[nH]cn1)C(=O)N[C@@H](C)C(=O)N[C@@H](C)C(=O)NCC(=O)N[C@@H](Cc1c[nH]c2ccccc12)C(N)=O [EEH] (H-GLLELLELLLHAAGW-NH2) please.
Output line: 0.50
